- Test system: Ileum
- assay: Ex vivo spasmolytic activity in ACh-induced contractions in Sprague-Dawley rat ileum incubated for 5 mins
- Type: functional, tissue-based
property.name: EC50 (µM)
Numeric answer only, unit µM assumed.

Name the recorded EC50 for CCN(CC)CCOC(=O)C1(C2CCCCC2)CCCCC1 .
0.6

Name the recorded EC50 for COc1c2cc(c(O[C@@H]3O[C@H](CO)[C@@H](O)[C@H](O)[C@H]3O)c1OC)CCCCC(=O)CCc1ccc(O)c-2c1 .
2.3

Name the recorded EC50 for COc1c2cc(c(O[C@@H]3O[C@H](CO)[C@@H](O)[C@H](O)[C@H]3O)c1OC)CCCC(=O)[C@@H](O)Cc1ccc(O)c-2c1 .
1.6

Name the recorded EC50 for COc1c2ccc(c1O[C@@H]1O[C@H](CO)[C@@H](O)[C@H](O)[C@H]1O)CCCCC(O)CCc1ccc(O)c(c1)O2 (some centres undefined) .
3.6

Name the recorded EC50 for COc1c2cc(c(O)c1OC)CCCC[C@@H](OC(C)=O)CCc1ccc(O)c-2c1 .
3.7

Name the recorded EC50 for COc1cc2cc(c1OC)-c1cc(ccc1O)C[C@H](O)C(=O)CCC2 .
1.4

Name the recorded EC50 for COc1c2cc(c(OC)c1OC)-c1cc(ccc1O)[C@H](O)CC(=O)CCCC2 .
4.6

Name the recorded EC50 for COc1c2cc(c(O[C@@H]3O[C@H](CO)[C@@H](O)[C@H](O)[C@H]3O)c1OC)CCCC[C@@H](O)CCc1ccc(O)c-2c1 .
3.2

Name the recorded EC50 for COc1c2cc(c(OC)c1O)-c1cc(ccc1O)CC[C@H](O)CCCC2 .
1.5
